Origin of values: patent US5208263A

- experimental_target: androgen receptor of rat ventral prostate (Rattus norvegicus, UniProt P15207)
- Construct: androgen receptors isolated, as described in Chang, C., et al., J. Steroid Biochem., 27:123 (1987), from rat ventral prostate; from tissue; host or cells: rat ventral prostate
- Sequence (P15207 whole entry S389L): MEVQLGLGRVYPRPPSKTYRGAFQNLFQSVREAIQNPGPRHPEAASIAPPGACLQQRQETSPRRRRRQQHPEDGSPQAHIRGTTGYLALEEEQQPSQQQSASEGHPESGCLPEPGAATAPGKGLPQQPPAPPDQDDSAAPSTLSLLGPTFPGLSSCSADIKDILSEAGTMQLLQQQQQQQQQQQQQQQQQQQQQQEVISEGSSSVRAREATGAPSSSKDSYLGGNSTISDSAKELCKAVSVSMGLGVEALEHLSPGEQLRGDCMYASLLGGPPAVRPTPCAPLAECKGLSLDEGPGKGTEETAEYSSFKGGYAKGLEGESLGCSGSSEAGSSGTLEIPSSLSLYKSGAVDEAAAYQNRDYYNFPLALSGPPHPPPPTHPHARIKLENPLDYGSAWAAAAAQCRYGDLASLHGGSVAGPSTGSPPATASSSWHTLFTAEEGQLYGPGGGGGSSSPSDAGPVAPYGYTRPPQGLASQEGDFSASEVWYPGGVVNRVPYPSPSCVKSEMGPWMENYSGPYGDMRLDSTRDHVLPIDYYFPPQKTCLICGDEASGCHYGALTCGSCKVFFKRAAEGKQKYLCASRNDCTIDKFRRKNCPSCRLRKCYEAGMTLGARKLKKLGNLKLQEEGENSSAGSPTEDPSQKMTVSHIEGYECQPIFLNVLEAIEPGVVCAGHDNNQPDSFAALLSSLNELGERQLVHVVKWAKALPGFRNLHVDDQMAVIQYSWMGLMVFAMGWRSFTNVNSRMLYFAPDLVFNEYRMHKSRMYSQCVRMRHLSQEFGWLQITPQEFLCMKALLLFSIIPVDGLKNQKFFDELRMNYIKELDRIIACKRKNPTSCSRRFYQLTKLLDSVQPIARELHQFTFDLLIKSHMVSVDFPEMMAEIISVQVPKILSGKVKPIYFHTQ
- experimental_details: Competition with [3H]R1881 for androgen receptor binding, cell-free assay (Table 1)
Can you tell me log10(IC50) for the items I'm about to list?
Could you please treat all values as log10 of IC50 in µM?

Query: // log10(IC50) lookup, key: OCC(O)c1ccc2c(c1)CCc1ccccc1-2 (stereo not drawn)
Response: 1.68

Query: // log10(IC50) lookup, key: OC1CCc2c1ccc1c2CCc2ccccc2-1 (stereo not drawn)
Response: 0.62

Query: // log10(IC50) lookup, key: c1ccc2c(c1)CCc1ccccc1-2 [9,10-dihydrophenanthrene, reference compound]
Response: 1.00

Query: // log10(IC50) lookup, key: Oc1ccc2c(c1)CCc1ccccc1-2 [Compound 13, 2-Hydroxy-9,10-dihydrophenanthrene]
Response: 0.90

Query: // log10(IC50) lookup, key: O=C1CCc2c1ccc1c2CCc2ccccc2-1 (racemic)
Response: 1.25

Query: // log10(IC50) lookup, key: c1ccc2c(c1)ccc1ccccc12 [phenanthrene, reference compound]
Response: 2.90

Query: // log10(IC50) lookup, key: CC(O)c1ccc2c(c1)CCc1ccccc1-2 (stereo not drawn)
Response: 0.41

Query: // log10(IC50) lookup, key: OCCc1ccc2c(c1)CCc1ccccc1-2
Response: 0.56

---

- experimental_target: androgen receptor of rat ventral prostate (Rattus norvegicus, UniProt P15207)
- Construct: androgen receptors isolated, as described in Chang, C., et al., J. Steroid Biochem., 27:123 (1987), from rat ventral prostate; from tissue; host or cells: rat ventral prostate
- experimental_details: Competition with [3H]R1881 for androgen receptor binding, cell-free assay (Table 1)
- experimental_conditions: in parentheses; relative to R1881 = 100.00; cell-free, rat ventral prostate
Short version: Relative receptor binding activity (RBA) at least 0.04 is Yes, less is No.

Query: Identify whether the reported Relative receptor binding activity (RBA) of the following compound is 0.04 or greater: O=C1CCc2c(ccc3c2CCc2c(O)cccc2-3)C1 [Compound 22]
Response: Yes

Query: Identify whether the reported Relative receptor binding activity (RBA) of the following compound is 0.04 or greater: c1ccc2c(c1)ccc1ccccc12 [phenanthrene, reference compound]
Response: No

Query: Identify whether the reported Relative receptor binding activity (RBA) of the following compound is 0.04 or greater: c1ccc2c(c1)CCc1ccccc1C2 [reference compound]
Response: No

Query: Identify whether the reported Relative receptor binding activity (RBA) of the following compound is 0.04 or greater: c1ccc2c(c1)CCc1ccccc1-2 [9,10-dihydrophenanthrene, reference compound]
Response: Yes

Query: Identify whether the reported Relative receptor binding activity (RBA) of the following compound is 0.04 or greater: Oc1ccc2c(c1)CCc1ccccc1-2 [Compound 13, 2-Hydroxy-9,10-dihydrophenanthrene]
Response: Yes

Query: Identify whether the reported Relative receptor binding activity (RBA) of the following compound is 0.04 or greater: OCCc1ccc2c(c1)CCc1ccccc1-2 [Compound 26]
Response: Yes

Query: Identify whether the reported Relative receptor binding activity (RBA) of the following compound is 0.04 or greater: c1cc2c(c3c1CCCC3)CCCC2 [1,2,3,4,5,6,7,8-octahydro-phenanthrene, reference compound]
Response: No

Query: Identify whether the reported Relative receptor binding activity (RBA) of the following compound is 0.04 or greater: CC(O)c1ccc2c(c1)CCc1ccccc1-2 (stereo not drawn) [Compound 9]
Response: Yes
